# System: wild-type MDR1 (P-glycoprotein) of dog and cat
# PROCEDURE_DETAILS: Rh123 efflux inhibition in MDR1-HEK293 cells, stated for both wild-type MDR1 carriers together
# CONDITION_LABEL: dog and cat, IC50 range, inhibition of both wild-type MDR1 carriers (dog and cat), 5 μM Rh123, HEK293; range over both species and experiments
EXPERIMENTAL_READOUT: IC50 at 60 min

>>> recorded_value("CS(=O)(=O)CC(=O)N1CC2(C1)OCc1cc(C3=NO[C@@](c4cc(Cl)c(F)c(Cl)c4)(C(F)(F)F)C3)ccc12")
"30 to 57 µM"
>>> recorded_value("C/C=C/C[C@@H](C)C(=O)[C@H]1C(=O)N[C@@H](C(C)C)C(=O)N(C)CC(=O)N(C)[C@@H](CC(C)C)C(=O)N[C@@H](C(C)C)C(=O)N(C)[C@@H](CC(C)C)C(=O)N[C@@H](C)C(=O)N[C@H](C)C(=O)N(C)[C@@H](CC(C)C)C(=O)N(C)[C@@H](CC(C)C)C(=O)N(C)[C@@H](C(C)C)C(=O)N1C")
"1 to 2 µM"
>>> recorded_value("CO[C@H]1C[C@H](O[C@@H]2/C(C)=C/C[C@@H]3C[C@@H](C[C@]4(CC[C@H](C)[C@@H](C5CCCCC5)O4)O3)OC(=O)[C@@H]3C=C(C)/C(=N/O)[C@H]4OC/C(=C\\C=C\\[C@@H]2C)[C@]43O)O[C@@H](C)[C@@H]1O")
"10 to 22 µM"

----------
# Tested on: wild-type MDR1 (P-glycoprotein) of dog and cat
# PROCEDURE_DETAILS: Rh123 efflux inhibition in MDR1-HEK293 cells, stated for both wild-type MDR1 carriers together
# CONDITION_LABEL: dog and cat, stably transfected MDR1-HEK293 cells (tetracycline-induced), probe rhodamine 123 (Rh123), 5 μM, IC50 range, inhibition of both wild-type MDR1 carriers (dog and cat), 5 μM Rh123, HEK293; range over both species and experiments
EXPERIMENTAL_READOUT: IC50 at 60 min

>>> recorded_value("CO/N=C1\\C[C@]2(C[C@@H]3C[C@@H](C/C=C(\\C)C[C@@H](C)/C=C/C=C4\\CO[C@@H]5[C@H](O)C(C)=C[C@@H](C(=O)O3)[C@]45O)O2)O[C@H](/C(C)=C/C(C)C)[C@H]1C [moxidectin]")
"8 to 21 µM"
>>> recorded_value("COc1cc2c(cc1OC)CN(CCc1ccc(NC(=O)c3cc(OC)c(OC)cc3NC(=O)c3cnc4ccccc4c3)cc1)CC2 [tariquidar]")
"0.1 to 0.2 µM"
>>> recorded_value("Cc1cc(C2=NO[C@@](c3cc(Cl)c(Cl)c(Cl)c3)(C(F)(F)F)C2)sc1C(=O)NCC(=O)NCC(F)(F)F [lotilaner]")
"11 to 23 µM"
